test system: HepG2; assay: drug sensitivity score (DSS) for viability; higher = more toxic; extreme values may be limits of the assay; conditions: 72 h
readout: drug sensitivity score

| compound | drug sensitivity score |
| --- | --- |
| C=C[C@H]1CN2CC[C@H]1C[C@H]2[C@H](O)c1ccnc2ccccc12 | 0 |
| Cc1cc(OCCCS(C)(=O)=O)cc(C)c1-c1cccc(COc2ccc3c(c2)OC[C@H]3CC(=O)O)c1 | 0 |
| CN1CCN(CCCN2c3ccccc3Sc3ccc(C(F)(F)F)cc32)CC1 | 3.5 |
| O[C@H]1[C@H](O)[C@@H](O)CN2CC[C@H](O)[C@H]12 | 0 |
| CCN(CC)CCCC(C)Nc1nc(C)cc(Nc2ccc3nc(C)cc(N)c3c2)n1 (stereo not drawn) | 1.2 |

Which value of drug sensitivity score has been reported for NCCCC[C@H](NC(=O)[C@@H](Cc1cc(Br)c(O)c(Br)c1)NC(=O)N1CCC(N2Cc3ccccc3NC2=O)CC1)C(=O)N1CCN(c2ccncc2)CC1 in the records? 0

Repeat with CN(C)CCOC1=Cc2ccccc2Sc2ccc(Cl)cc21 [zotepine] 4.3

Another compound to check: Cc1cc(NS(=O)(=O)c2ccc(N)cc2)no1 0
